- TARGET UNDER TEST: Human Factor B (human, UniProt P00751 26-764)
- Sequence (P00751 26-764 limits assumed): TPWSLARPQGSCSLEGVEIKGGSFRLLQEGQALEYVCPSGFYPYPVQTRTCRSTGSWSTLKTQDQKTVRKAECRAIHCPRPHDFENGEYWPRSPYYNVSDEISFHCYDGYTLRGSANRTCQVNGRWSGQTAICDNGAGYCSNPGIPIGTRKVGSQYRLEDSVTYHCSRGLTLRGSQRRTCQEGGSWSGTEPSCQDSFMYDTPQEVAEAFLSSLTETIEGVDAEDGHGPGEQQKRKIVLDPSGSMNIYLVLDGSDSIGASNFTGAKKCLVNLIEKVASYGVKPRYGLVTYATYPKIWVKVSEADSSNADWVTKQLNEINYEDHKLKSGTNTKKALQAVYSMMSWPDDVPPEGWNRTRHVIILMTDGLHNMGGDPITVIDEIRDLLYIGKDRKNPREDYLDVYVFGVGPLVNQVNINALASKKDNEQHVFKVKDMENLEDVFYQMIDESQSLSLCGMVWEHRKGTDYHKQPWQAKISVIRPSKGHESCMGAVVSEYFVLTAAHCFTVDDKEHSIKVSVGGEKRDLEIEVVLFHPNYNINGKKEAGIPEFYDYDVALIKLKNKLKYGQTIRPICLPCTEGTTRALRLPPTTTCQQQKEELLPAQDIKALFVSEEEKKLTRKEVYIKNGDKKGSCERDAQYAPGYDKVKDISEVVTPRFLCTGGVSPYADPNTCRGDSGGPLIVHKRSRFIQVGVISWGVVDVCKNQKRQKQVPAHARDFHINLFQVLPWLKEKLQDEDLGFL
- TEST SUMMARY: cell-based or functional assay
QUANTITY: fB Cleavage EC50 (µM)
Just the number please, in µM, no unit attached.

Before answering, review these 2 worked examples.
chymase C22S/F41V/L99F/G151R/F173K/R217S/A226R (enzyme) IIGGTESKPHSRPYMAYLEIVTSNGPSKVCGGFLIRRNFVLTAAHCAGRSITVTLGAHNITEEEDTWQKLEVIKQFRHPKYNTSTFHHDIMLLKLKEKASLTLAVGTLPFPSQFNFVPPGRMCRVAGWGRTGVLKPRSDTLQEVKLRLMDPQACSHKRDFDHNLQLCVGNPRKTKSAFKGDSGGPLLCAGVAQGIVSYGSSDAKPPRVFTRISHYRPWINQILQAN : 3.65
chymase C22S/K192R/A226R (enzyme) IIGGTESKPHSRPYMAYLEIVTSNGPSKFCGGFLIRRNFVLTAAHCAGRSITVTLGAHNITEEEDTWQKLEVIKQFRHPKYNTSTLHHDIMLLKLKEKASLTLAVGTLPFPSQFNFVPPGRMCRVAGWGRTGVLKPGSDTLQEVKLRLMDPQACSHFRDFDHNLQLCVGNPRKTKSAFRGDSGGPLLCAGVAQGIVSYGRSDAKPPRVFTRISHYRPWINQILQAN : 6.37

Could you now look at the following binder, please?
INPUT: // Input: chymase C22S (enzyme, For all chymase variants: mutation names are in chymotrypsin numbering) IIGGTESKPHSRPYMAYLEIVTSNGPSKFCGGFLIRRNFVLTAAHCAGRSITVTLGAHNITEEEDTWQKLEVIKQFRHPKYNTSTLHHDIMLLKLKEKASLTLAVGTLPFPSQFNFVPPGRMCRVAGWGRTGVLKPGSDTLQEVKLRLMDPQACSHFRDFDHNLQLCVGNPRKTKSAFKGDSGGPLLCAGVAQGIVSYGRSDAKPPAVFTRISHYRPWINQILQAN . Output its fB Cleavage EC50 only.
OUTPUT: 0.265
